src = patent US20120023600A1

# targetDesc: T1, cynomolgus DKK1 (cynomolgus monkey (Macaca fascicularis), UniProt A0A7N9IE82 32-266)
# T1 construct: also called cyno DKK1; monkey DKK1 (Novartis)
# T1 sequence: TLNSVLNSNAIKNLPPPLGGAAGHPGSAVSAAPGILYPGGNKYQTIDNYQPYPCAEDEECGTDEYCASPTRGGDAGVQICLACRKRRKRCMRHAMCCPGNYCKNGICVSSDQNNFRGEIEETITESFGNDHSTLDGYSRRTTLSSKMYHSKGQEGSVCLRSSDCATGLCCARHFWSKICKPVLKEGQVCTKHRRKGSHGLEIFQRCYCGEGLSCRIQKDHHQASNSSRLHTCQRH
# procedureSummary: SPR (Biacore), DKK1 immobilised on CM5 chip, Fab as analyte
readoutLabel: Kd (nM)
Answers are plain numbers, in nM.

Worked set:
{"binder": "MOR04461 (Fab, V domains shown, Fab with C-terminal FLAG and 6xHis tags) VH: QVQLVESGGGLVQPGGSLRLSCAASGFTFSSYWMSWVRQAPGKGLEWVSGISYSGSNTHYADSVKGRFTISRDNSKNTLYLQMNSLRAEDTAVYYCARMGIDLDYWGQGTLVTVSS VL: DIALTQPASVSGSPGQSITISCTGTSSDVGGFNYVSWYQQHPGKAPKLMIHDGSNRPSGVSNRFSGSKSGNTASLTISGLQAEDEADYYCSTWDMTVDFVFGGGTKLTVLG", "uom": "nM", "Kd": 7.3}
{"binder": "MOR04456 (Fab, V domains shown, Fab with C-terminal FLAG and 6xHis tags) VH: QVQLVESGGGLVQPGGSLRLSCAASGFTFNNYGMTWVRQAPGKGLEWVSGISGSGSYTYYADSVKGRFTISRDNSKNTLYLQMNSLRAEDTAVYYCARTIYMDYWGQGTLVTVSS VL: DIVLTQSPATLSLSPGERATLSCRASQNLFSPYLAWYQQKPGQAPRLLIYGASNRATGVPARFSGSGSGTDFTLTISSLEPEDFATYYCQQYGDEPITFGQGTKVEIKR", "uom": "nM", "Kd": 8.1}
{"binder": "MOR04516 (Fab, V domains shown, Fab with C-terminal FLAG and 6xHis tags; also called MOR4516) VH: QVQLVQSGAEVKKPGESLKISCKGSGYSFTNYYIGWVRQMPGKGLEWMGIIYPTDSYTNYSPSFQGQVTISADKSISTAYLQWSSLKASDTAMYYCARGIPFRMRGFDYWGQGTLVTVSS VL: DIVLTQPPSVSGAPGQRVTISCSGSSSNIGSSFVNWYQQLPGTAPKLLIGNNSNRPSGVPDRFSGSKSGTSASLAITGLQSEDEADYYCASFDMGSPNVVFGGGTKLTVLG", "uom": "nM", "Kd": 1.9}

In the following, a different binder is considered.
Query string: Name the recorded Kd for MOR04454 (Fab, V domains shown, Fab with C-terminal FLAG and 6xHis tags) VH: QVQLVESGGGLVQPGGSLRLSCAASGFTFSNYGLHWVRQAPGKGLEWVSSISYYGSSTYYADSVKGRFTISRDNSKNTLYLQMNSLRAEDTAVYYCARDGSHMDKPPGYVFAFWGQGTLVTVSS VL: DIQMTQSPSSLSASVGDRVTITCRASQGIKNYLNWYQQKPGKAPKLLIGAASSLQSGVPSRFSGSGSGTDFTLTISSLQPEDFATYYCLQYYGMPPTFGQGTKVEIKR .
Result string: 2.7
